experimental-target: Catechol O-methyltransferase (Homo sapiens) (UniProt P21964)
Sequence (P21964 whole entry, looked up): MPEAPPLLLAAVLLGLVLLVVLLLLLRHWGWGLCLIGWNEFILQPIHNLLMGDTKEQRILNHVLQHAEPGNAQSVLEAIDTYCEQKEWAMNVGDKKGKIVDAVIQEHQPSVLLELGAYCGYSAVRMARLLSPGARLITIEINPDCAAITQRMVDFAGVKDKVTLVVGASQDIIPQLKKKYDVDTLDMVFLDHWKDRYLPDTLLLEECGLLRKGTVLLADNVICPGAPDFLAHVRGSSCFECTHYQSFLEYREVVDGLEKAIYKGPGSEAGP
test: Confirmatory Screen for Target Class Profiling of Small Molecule Inhibitors of Methyltransferases (AID 1745852)
condition-parameters: MTase-Glo luminescence, SAH detection, recombinant enzyme; measured here: COMT max response; stronger effect = lower value
outcome-measure: activity (%)

* O=C(Cn1ccc2cc(S(=O)(=O)N3CCCCC3)ccc21)NCCCN1CCCCC1 | -5.54
* COc1ccc(OC)c2c1cc1n2CC(C)(C(=O)NC2CCCCC2C)N(Cc2ccco2)C1=O (stereo unspecified) | -9.78
* CNc1cc(C2CC(NC(=O)COc3ccc(Cl)cc3C)C2)nc(N)n1 (stereo unspecified) | 7.09
* CC1CCCC(NC(=O)C2(C)Cn3c(cc4occc43)C(=O)N2Cc2ccco2)C1C (stereo unspecified) | -10.3
* CCCCN(C)C(=O)c1c(C)sc2ccn(CCC)c(=O)c12 | -45.9
* CCCC1c2cccn2CCN1C(=O)Nc1ccc(F)cc1F (stereo unspecified) | -4.42
* Cc1nc2cccnc2n1CC1CCCN(S(=O)(=O)c2ccc3c(c2)OCCO3)C1 (stereo unspecified) | 2.68
* c1ccc(-c2[nH]nc3ncc(-c4cn[nH]c4)nc23)cc1 | -73.4
* Cc1ccccc1-c1[nH]nc2ncc(-c3c(C)noc3C)nc12 | -14.4
* CC1CCN(CCCNC(=O)C2CCc3sc(C(=O)N4CCCC4)cc3C2)CC1 (stereo unspecified) | 4.14
* COc1cccc(Nc2ccnc(-c3nnc(C)n3C3CCCCC3)c2)c1 | 7.43
* CCN(CC)CCNC(=O)CCCc1nnc2n3nc(-c4ccccc4)nc3c3ccccc3n12 | -2.75
* CCN(CC)CCCNC(=O)CCc1nnc2n(Cc3ccc(F)cc3)c(=O)c3ccccc3n12 | 2.05
* N#Cc1cnc(N2CC3CCC(C2)N3CC(F)(F)F)s1 | -0.326
* CN(C)CCOCC1(C)COc2ccc(C(=O)Nc3ccc4[nH]ccc4c3)cc2N1 (stereo unspecified) | 1.58
* COCc1nc2nc(-c3ccccc3)c(-c3ccc(O)c(F)c3)cc2n1C | -38
* CC1(C(=O)NC2CCCC2)Cn2c(c(-n3cccc3)c3ccccc32)C(=O)N1Cc1ccccn1 (stereo unspecified) | 1.3
* O=C1c2ccccc2C(=O)c2c1cccc2S(=O)(=O)Nc1ccc(Cl)cc1 | 0.0726
* O=C(OCc1ccccc1)N1CCOCC12CCN(Cc1c[nH]c3ccccc13)CC2 | 6.86
* COc1ccc(CCN2C(=O)c3cc4oc(C)cc4n3CC2(C)C(=O)NC2CCCCC2)cc1OC (stereo unspecified) | -7.54
* CC(C)c1nccn1CCCNC(=O)c1ccc(-c2cccc(F)c2)nc1 | 4.81
